Biological target: Vascular endothelial growth factor receptor 3 (Homo sapiens)
Sequence (P35916 whole entry): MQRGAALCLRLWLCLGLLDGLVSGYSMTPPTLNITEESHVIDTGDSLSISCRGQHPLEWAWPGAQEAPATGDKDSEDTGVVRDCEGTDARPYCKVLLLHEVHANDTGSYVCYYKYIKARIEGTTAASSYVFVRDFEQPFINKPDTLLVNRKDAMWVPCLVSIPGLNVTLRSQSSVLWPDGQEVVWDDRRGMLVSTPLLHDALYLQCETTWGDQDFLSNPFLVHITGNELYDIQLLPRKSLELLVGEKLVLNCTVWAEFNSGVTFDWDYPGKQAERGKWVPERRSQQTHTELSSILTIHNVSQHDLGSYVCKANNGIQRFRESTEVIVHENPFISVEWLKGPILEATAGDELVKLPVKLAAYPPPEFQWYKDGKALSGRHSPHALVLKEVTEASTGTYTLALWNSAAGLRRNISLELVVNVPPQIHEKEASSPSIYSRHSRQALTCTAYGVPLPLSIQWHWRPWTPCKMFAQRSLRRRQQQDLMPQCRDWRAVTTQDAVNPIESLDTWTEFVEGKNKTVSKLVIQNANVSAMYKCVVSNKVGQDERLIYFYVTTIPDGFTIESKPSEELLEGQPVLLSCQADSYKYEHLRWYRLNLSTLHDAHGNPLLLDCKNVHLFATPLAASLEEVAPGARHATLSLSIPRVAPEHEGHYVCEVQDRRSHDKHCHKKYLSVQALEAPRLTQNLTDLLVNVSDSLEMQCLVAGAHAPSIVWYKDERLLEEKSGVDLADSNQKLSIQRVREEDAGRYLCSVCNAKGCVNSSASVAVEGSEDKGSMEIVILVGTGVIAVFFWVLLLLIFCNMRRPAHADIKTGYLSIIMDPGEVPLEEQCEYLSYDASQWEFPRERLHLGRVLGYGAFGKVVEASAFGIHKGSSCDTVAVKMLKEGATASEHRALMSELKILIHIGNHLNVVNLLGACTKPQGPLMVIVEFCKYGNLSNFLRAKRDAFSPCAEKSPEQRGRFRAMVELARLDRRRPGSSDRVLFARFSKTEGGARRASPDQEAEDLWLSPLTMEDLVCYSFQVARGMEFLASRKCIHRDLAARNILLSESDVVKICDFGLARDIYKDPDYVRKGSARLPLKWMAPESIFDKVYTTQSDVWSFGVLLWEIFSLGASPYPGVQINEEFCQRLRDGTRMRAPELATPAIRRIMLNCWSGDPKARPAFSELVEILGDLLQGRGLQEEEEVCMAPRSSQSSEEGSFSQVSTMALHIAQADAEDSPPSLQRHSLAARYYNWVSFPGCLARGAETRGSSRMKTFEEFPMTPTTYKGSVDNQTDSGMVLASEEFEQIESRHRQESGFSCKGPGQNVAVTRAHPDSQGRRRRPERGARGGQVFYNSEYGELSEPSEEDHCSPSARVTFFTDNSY
Measurement type: IC50 (nM)
Kindly answer with a numeric value in nM, unit omitted.

### Prompt // fetch IC50 given entry O=C(Nc1ccc(Nc2ccnc3[nH]c(=O)c4ccccc4c23)cc1)c1ccc(F)cc1C(F)(F)F
### Response 867

* * *

Experiment: Solubility of the compound
Type: physicochemical
Measurement type: solubility

### Prompt Provide only the value of recorded solubility for O=C(Nc1ccc(Nc2ccnc3[nH]c(=O)c4ccccc4c23)cc1)c1ccccc1
### Response < 1 µM

* * *

Target: Mitogen-activated protein kinase 13 (Homo sapiens)
Sequence (O15264 whole entry): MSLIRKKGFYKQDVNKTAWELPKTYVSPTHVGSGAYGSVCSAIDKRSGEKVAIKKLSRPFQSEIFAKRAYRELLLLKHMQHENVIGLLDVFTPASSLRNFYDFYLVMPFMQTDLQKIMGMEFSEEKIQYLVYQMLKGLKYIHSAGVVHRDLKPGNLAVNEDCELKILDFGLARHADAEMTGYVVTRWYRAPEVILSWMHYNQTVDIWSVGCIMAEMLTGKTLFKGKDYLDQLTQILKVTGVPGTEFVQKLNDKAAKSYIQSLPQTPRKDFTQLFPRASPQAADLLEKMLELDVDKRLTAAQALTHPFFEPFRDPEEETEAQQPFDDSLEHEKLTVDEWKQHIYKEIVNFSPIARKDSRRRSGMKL
Experiment: Inhibition of SAPK4 (unknown origin)
Measurement type: IC50 (nM)
Provide the reading as a plain figure in nM.

### Prompt Specify measured IC50 for O=C(Nc1ccc(Nc2ccnc3[nH]c(=O)c4ccccc4c23)cc1)c1ccccc1 .
### Response 411

* * *

Biological target: Aurora kinase B (Homo sapiens, UniProt Q96GD4)
Sequence (Q96GD4 whole entry): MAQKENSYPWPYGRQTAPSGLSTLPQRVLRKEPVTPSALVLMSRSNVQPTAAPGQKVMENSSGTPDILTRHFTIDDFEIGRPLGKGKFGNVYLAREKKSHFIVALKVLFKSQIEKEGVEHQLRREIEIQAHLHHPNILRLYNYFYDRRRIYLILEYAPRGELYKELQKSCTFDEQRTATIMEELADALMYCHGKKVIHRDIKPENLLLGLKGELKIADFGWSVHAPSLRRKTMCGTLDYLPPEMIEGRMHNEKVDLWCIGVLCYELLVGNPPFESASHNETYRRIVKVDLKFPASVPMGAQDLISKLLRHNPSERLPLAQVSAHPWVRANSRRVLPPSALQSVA
Test: Inhibition of aurora-B (unknown origin)
Returns: string. Value is Criterion met if measured IC50 is below 2 nM, and Criterion not met if it is greater than or equal to it.

These recorded examples may help you get a feel for the data.
# Chemical string, Assigned class
measured = [
    ("O=C(Nc1ccc(Nc2ccnc3[nH]c(=O)c4ccccc4c23)cn1)c1ccccc1", "Criterion not met"),
    ("O=C(Nc1ccc(Nc2ccnc3[nH]c(=O)c4ccccc4c23)cc1)c1cccc(C(F)(F)F)c1F", "Criterion met"),
    ("O=C(Nc1ccc(Nc2ccnc3[nH]c(=O)c4ccccc4c23)cc1)c1cccc(F)c1", "Criterion met"),
]

### Prompt Is IC50 of O=C(Nc1ccc(Nc2ccnc3[nH]c(=O)c4ccccc4c23)cc1)c1ccc(C(F)(F)F)cc1 strictly below 2 nM?
### Response Criterion not met

### Prompt Lab log: compare recorded IC50 with 2 nM; is it strictly lower for Nc1ccc(Nc2ccnc3[nH]c(=O)c4ccccc4c23)cc1 ?
### Response Criterion not met

### Prompt Decide: IC50 of O=C(Nc1ccc(Nc2ccnc3[nH]c(=O)c4ccccc4c23)cc1)c1ccc(F)cc1C(F)(F)F strictly below 2 nM?
### Response Criterion met

### Prompt # TODO verify IC50 < 2 nM strictly for this compound: O=C(Nc1ccc(Nc2ccnc3[nH]c(=O)c4ccccc4c23)cc1)c1ccc(F)cc1F
### Response Criterion met

### Prompt # TODO verify IC50 < 2 nM strictly for this compound: O=C(Nc1ccc(Nc2ccnc3[nH]c(=O)c4ccccc4c23)cc1)c1ccc(F)cc1
### Response Criterion met

### Prompt Would you kindly verify if IC50 of O=C(Nc1ccc(Nc2ccnc3[nH]c(=O)c4ccccc4c23)nc1)c1ccccc1 is strictly less than 2 nM?
### Response Criterion not met

### Prompt Hello, I'm reviewing records and need to know if IC50 of O=c1[nH]c2nccc(Cl)c2c2ccccc12 is below 2 nM. Could you check?
### Response Criterion not met

### Prompt Identify whether the compound COc1cccc(F)c1C(=O)Nc1ccc(Nc2ccnc3[nH]c(=O)c4ccccc4c23)cc1 records IC50 below 2 nM.
### Response Criterion met

* * *

Target: Aurora kinase B (Homo sapiens)
Assay: Inhibition of aurora-B in human MIAPaCa2 cells assessed as reduction of phosphorylation of histone H3
Format: cell-based, MIA PaCa-2
Each item that follows carries a reported IC50.
Number only, in nM; omit the unit.

# Chemical string, Measured on, Measurement type, Unit label, Endpoint result
rows = [
    ("O=C(Nc1ccc(Nc2ccnc3[nH]c(=O)c4ccccc4c23)cc1)c1ccc(F)cc1C(F)(F)F", "Aurora kinase B (Homo sapiens)", "IC50", "nM", 52),
]

// switching to the query compound
### Prompt Please give the documented IC50 of O=C(Nc1ccc(Nc2ccnc3[nH]c(=O)c4ccccc4c23)cc1)c1ccccc1
### Response 208

* * *

Assay: AUC in mouse at 5 mg/kg, iv
Assay type: ADME, organism-based
Set-up: dose 5 mg/kg, route intravenous
Conditions: plasma
Measurement type: AUC

### Prompt For the molecule O=C(Nc1ccc(Nc2ccnc3[nH]c(=O)c4ccccc4c23)cc1)c1ccc(F)cc1C(F)(F)F , report AUC.
### Response 4190 ng·h/mL

* * *

Assay: Oral bioavailability in mouse at 5 mg/kg
Format: ADME, organism-based
Details: in vivo
Measurement type: bioavailability (%)
Form entry: value (%) — number only.

### Prompt Look up bioavailability of O=C(Nc1ccc(Nc2ccnc3[nH]c(=O)c4ccccc4c23)cc1)c1ccc(F)cc1C(F)(F)F and report it.
### Response 41

* * *

Assay: Volume of distribution at steady state in mouse at 5 mg/kg, iv
Type: ADME, organism-based
Design: dose 5 mg/kg, route intravenous
Conditions: in vivo, read-out: Vdss
Measurement type: Vd (L/kg)
Give just the number in L/kg; leave the unit off.

### Prompt Specify reported Vd for the compound shown: O=C(Nc1ccc(Nc2ccnc3[nH]c(=O)c4ccccc4c23)cc1)c1ccc(F)cc1C(F)(F)F
### Response 1.48

* * *

Experiment: Cmax in mouse at 5 mg/kg, po
Type: ADME, organism-based
Set-up: dose 5 mg/kg, route oral
Conditions: in vivo
Measurement type: Cmax (ng/mL)
Numeric answer only, unit ng/mL assumed.

### Prompt State its Cmax: O=C(Nc1ccc(Nc2ccnc3[nH]c(=O)c4ccccc4c23)cc1)c1ccc(F)cc1C(F)(F)F
### Response 321

* * *

Record type: log10 IC50 measurement. Applies to: Aurora kinase A (Homo sapiens, UniProt O14965)
Values below are the log10 of the recorded IC50, with nM as the unit.

Example entries and their recorded answers appear below.
# Chemical string, Measured on, log10 IC50
measured = [
    ("COc1cccc(F)c1C(=O)Nc1ccc(Nc2ccnc3[nH]c(=O)c4ccccc4c23)cc1", "Aurora kinase A (Homo sapiens, UniProt O14965)", 0.48),
    ("O=C(Nc1ccc(Nc2ccnc3[nH]c(=O)c4ccccc4c23)nc1)c1ccccc1", "Aurora kinase A (Homo sapiens, UniProt O14965)", 2.79),
    ("O=C(Nc1ccc(Nc2ccnc3[nH]c(=O)c4ccccc4c23)cn1)c1ccccc1", "Aurora kinase A (Homo sapiens, UniProt O14965)", 1.85),
    ("O=C(Nc1ncc(Nc2ccnc3[nH]c(=O)c4ccccc4c23)cn1)c1ccccc1", "Aurora kinase A (Homo sapiens, UniProt O14965)", 1.94),
    ("Nc1ccc(Nc2ccnc3[nH]c(=O)c4ccccc4c23)cc1", "Aurora kinase A (Homo sapiens, UniProt O14965)", 3.06),
]

### Prompt Report measured log10 IC50 on Aurora kinase A (Homo sapiens, UniProt O14965); entry: O=C(Nc1ccc(Nc2ccnc3[nH]c(=O)c4ccccc4c23)cc1)c1ccccc1C(F)(F)F
Sequence (O14965 whole entry): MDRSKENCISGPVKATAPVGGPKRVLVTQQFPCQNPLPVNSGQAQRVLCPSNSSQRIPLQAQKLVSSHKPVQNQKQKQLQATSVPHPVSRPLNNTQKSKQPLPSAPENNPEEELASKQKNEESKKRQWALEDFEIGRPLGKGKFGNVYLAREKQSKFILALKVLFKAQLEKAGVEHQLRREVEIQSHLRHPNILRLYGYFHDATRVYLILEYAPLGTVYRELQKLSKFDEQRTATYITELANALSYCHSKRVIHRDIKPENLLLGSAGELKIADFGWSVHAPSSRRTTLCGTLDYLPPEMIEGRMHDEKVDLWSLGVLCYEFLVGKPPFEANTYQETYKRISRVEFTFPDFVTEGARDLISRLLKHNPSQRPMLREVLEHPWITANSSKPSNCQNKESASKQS
### Response 0.60

### Prompt Write down measured log10 IC50 (Aurora kinase A (Homo sapiens, UniProt O14965)) for this compound. O=C(Nc1ccc(Nc2ccnc3[nH]c(=O)c4ccccc4c23)cc1)c1c(F)cccc1F
### Response 0.70

* * *

Target: Serine/threonine-protein kinase SIK1 (Homo sapiens, UniProt P57059)
Sequence (P57059 whole entry): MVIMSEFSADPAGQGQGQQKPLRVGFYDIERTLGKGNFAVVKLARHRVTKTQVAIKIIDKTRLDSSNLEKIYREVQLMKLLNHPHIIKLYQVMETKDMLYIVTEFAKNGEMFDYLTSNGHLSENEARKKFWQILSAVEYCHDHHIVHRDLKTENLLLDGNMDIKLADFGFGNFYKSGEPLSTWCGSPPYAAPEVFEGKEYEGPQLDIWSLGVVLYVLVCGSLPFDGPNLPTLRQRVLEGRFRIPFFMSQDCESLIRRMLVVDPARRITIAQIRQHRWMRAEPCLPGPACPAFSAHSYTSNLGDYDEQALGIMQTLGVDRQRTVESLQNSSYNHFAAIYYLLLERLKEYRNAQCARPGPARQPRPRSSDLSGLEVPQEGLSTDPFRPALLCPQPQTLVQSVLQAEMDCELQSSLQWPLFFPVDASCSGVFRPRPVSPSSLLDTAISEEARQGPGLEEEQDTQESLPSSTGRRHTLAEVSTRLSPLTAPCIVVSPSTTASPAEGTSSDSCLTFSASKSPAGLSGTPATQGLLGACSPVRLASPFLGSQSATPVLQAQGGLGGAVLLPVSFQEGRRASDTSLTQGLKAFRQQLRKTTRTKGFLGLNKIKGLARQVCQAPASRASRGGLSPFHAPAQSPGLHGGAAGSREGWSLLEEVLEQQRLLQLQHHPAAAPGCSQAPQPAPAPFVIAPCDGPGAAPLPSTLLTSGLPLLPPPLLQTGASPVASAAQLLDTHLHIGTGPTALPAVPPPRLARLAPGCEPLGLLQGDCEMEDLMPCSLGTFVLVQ
Measurement type: IC50 (nM)
Give the quantity in nM, number only.

### Prompt Please report IC50 for the following molecule: O=C(Nc1ccc(Nc2ccnc3[nH]c(=O)c4ccccc4c23)cc1)c1ccccc1
### Response 211

* * *

Molecular target: UniProt P04629
Measurement type: pIC50
Here pIC50 is given on a logarithmic scale as minus log10 of the concentration in mol/L.

### Prompt Retrieve pIC50 on UniProt P04629; query O=C(Nc1ccc(Nc2ccnc3[nH]c(=O)c4ccccc4c23)cc1)c1ccccc1
### Response 6.09

* * *

Experiment: Half life in mouse at 5 mg/kg, po
Format: ADME, organism-based
Design: dose 5 mg/kg, route oral
Conditions: in vivo
Measurement type: half-life (h)
Report only the number, with the unit h understood.

### Prompt Please give measured half-life of the following entry: O=C(Nc1ccc(Nc2ccnc3[nH]c(=O)c4ccccc4c23)cc1)c1ccc(F)cc1C(F)(F)F
### Response 2.74

* * *

Target: LIM domain kinase 1 (Homo sapiens, UniProt P53667)
Sequence (P53667 whole entry, the tested form may be a part): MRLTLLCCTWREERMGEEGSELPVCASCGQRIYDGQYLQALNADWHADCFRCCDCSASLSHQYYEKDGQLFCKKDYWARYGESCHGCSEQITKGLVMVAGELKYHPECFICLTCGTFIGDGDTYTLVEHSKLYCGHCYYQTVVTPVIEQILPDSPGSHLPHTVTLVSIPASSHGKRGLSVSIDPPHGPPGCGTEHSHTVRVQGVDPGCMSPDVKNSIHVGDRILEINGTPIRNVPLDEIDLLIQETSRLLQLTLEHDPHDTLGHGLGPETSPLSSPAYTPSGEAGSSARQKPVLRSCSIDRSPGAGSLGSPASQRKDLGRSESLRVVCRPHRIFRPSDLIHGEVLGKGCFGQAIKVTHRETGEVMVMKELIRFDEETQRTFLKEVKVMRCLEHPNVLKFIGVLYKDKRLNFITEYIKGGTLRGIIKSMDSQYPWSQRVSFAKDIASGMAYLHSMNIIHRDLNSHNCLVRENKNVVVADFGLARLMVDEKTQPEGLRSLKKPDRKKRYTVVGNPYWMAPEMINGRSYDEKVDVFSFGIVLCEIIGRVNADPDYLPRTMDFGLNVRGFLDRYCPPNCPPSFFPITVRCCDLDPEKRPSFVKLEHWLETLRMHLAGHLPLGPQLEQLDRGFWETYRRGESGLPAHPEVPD
Measurement type: IC50 (nM)
# output: bare number, implied unit nM

### Prompt Report measured IC50; entry is O=C(Nc1ccc(Nc2ccnc3[nH]c(=O)c4ccccc4c23)cc1)c1ccccc1
### Response 36

* * *

Target: Tyrosine-protein kinase HCK (Homo sapiens)
Sequence (P08631 whole entry): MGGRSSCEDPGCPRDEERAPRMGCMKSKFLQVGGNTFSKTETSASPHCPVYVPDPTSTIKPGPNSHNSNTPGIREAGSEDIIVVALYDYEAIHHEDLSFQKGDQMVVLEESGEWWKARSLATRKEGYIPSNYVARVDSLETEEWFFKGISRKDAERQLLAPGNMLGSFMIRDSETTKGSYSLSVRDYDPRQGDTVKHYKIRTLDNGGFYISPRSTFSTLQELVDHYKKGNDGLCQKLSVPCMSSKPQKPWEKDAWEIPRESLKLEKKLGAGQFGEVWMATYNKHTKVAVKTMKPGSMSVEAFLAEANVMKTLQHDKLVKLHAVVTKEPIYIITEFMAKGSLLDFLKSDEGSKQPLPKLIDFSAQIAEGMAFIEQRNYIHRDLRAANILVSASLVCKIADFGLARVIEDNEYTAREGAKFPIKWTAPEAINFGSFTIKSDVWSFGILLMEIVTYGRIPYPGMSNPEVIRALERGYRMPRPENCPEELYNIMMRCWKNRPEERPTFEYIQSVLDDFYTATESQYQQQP
Measurement type: IC50 (nM)
Answer in nM, number only, no unit symbol.

### Prompt Indicate the recorded IC50 value for this compound: O=C(Nc1ccc(Nc2ccnc3[nH]c(=O)c4ccccc4c23)cc1)c1ccccc1
### Response 958

* * *

Experiment: AUC in mouse at 5 mg/kg, po
Format: ADME, organism-based
Set-up: dose 5 mg/kg, route oral
Conditions: plasma
Measurement type: AUC (ng·h/mL)
Expressed in ng·h/mL, but write only the number.

### Prompt Indicate its recorded AUC; the compound in question is O=C(Nc1ccc(Nc2ccnc3[nH]c(=O)c4ccccc4c23)cc1)c1ccc(F)cc1C(F)(F)F
### Response 1440
